// reported %Inh for each item listed
- Test system: IKK-alpha
- Construct: gene CHUK
- experimental-conditions: concentration: 1 μM, replicates: in singlicate; n = 1;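 also: KINOMEscan kinase panel screen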
experimental-readout: %Inh (%)

>  <smiles>
Cc1nn2c(=O)cc(N3CCOCC3)nc2n1Cc1cccc(Cl)c1Cl

>  <unit-spec>
%

>  <value-observed>
19

$$$$
>  <smiles>
COc1cc2ncn(-c3cc(OCc4ccc(S(C)(=O)=O)cc4)c(C(N)=O)s3)c2cc1OC

>  <unit-spec>
%

>  <value-observed>
0

$$$$
>  <smiles>
Cc1c(Cn2c(C)nn3c(=O)cc(N4CCO[C@H](C)C4)nc23)cccc1C(F)(F)F

>  <unit-spec>
%

>  <value-observed>
0

$$$$
>  <smiles>
O=C(Nc1ccc2c(c1)OCO2)NC1CCN(c2ccnc(NCc3ccc(F)cc3)n2)CC1

>  <unit-spec>
%

>  <value-observed>
0

$$$$

----------
// reported %Inh for each item listed
- Test system: IKK-alpha
- Construct: gene CHUK
- experimental-conditions: concentration: 1 μM, replicates: in singlicate; n = 1
experimental-readout: %Inh (%)

>  <compound>
CN(C)c1cc(-c2ccc3c(N)n[nH]c3c2)nc(N)n1 [GSK2219329]

>  <value-observed>
0

$$$$
>  <compound>
COc1ccc(-c2coc3ccc(-c4nnc(SCc5cccc(C#N)c5)o4)cc23)cc1

>  <value-observed>
19

$$$$
>  <compound>
COc1cccc(-n2cnc3c(N)ncnc32)c1 [SKF-97416]

>  <value-observed>
50

$$$$
>  <compound>
COc1ccc(Nc2nccc(N3CCC(NS(=O)(=O)c4ccc(NC(C)=O)cc4)C3)n2)cc1 (stereo not drawn) [GSK1379729]

>  <value-observed>
12

$$$$
>  <compound>
CCS(=O)c1ccc(-c2coc3ccc(-c4nnc(C)o4)cc23)cc1 (stereo not drawn)

>  <value-observed>
10

$$$$
>  <compound>
COc1cc(Nc2ccnc3ccc(C(F)(F)F)cc23)cc(OC)c1OC [GW577382]

>  <value-observed>
21

$$$$
>  <compound>
COc1cc2nccc(Nc3cccc(Oc4ccccc4)c3)c2cc1OC.Cl [GW284543]

>  <value-observed>
0

$$$$
>  <compound>
Nc1nc(N)c2nc(-c3ccccc3)[nH]c2n1 [SKF-12778]

>  <value-observed>
4

$$$$
>  <compound>
Cl.NS(=O)(=O)c1cccc(Nc2cc(-c3ccc(F)cc3)n[nH]2)c1 [GW824645]

>  <value-observed>
1

$$$$

----------
- Tested on: MST1R
- experimental-conditions: concentration: 1 μM, replicates: in singlicate; n = 1

>  <compound>
Cc1cccc(-c2cc(-c3c[nH]nc3-c3ccccn3)ccn2)c1

>  <%Inh>
60%

$$$$
>  <compound>
COC(=O)c1c(-c2ccccc2)c2cc(Br)ccc2c(=O)n1Cc1ccc(S(C)(=O)=O)cc1

>  <%Inh>
43%

$$$$
>  <compound>
COc1ccc(-c2cc3c(C)nc(N)nc3n([C@H]3CC[C@H](OCCO)CC3)c2=O)cn1

>  <%Inh>
0%

$$$$
>  <compound>
Cc1cc(Nc2nc(-c3cccc(C)n3)nc3ccccc23)ccn1

>  <%Inh>
0%

$$$$
>  <compound>
O=C(Nc1n[nH]c2nc(-c3ccccc3)c(Br)cc12)C1CC1

>  <%Inh>
100%

$$$$
>  <compound>
Nc1ncnc2c1ncn2-c1cccc2ccccc12

>  <%Inh>
6%

$$$$
>  <compound>
CCCC(=O)Nc1n[nH]c2ncc(-c3cccc4ccccc34)cc12

>  <%Inh>
18%

$$$$
>  <compound>
Nc1ncnc2c1ncn2-c1ccc(Cl)cc1

>  <%Inh>
17%

$$$$
>  <compound>
Cc1ccc(-c2ccc3c(ccc4sc5c(c43)NC[C@@H](C)N=C5N(C)C)n2)cn1

>  <%Inh>
13%

$$$$
>  <compound>
CC(C)(C)c1ccc(C(=O)Nc2cn3cc(-c4ccccc4)ccc3n2)cc1

>  <%Inh>
26%

$$$$
>  <compound>
O=C1NC(=O)C(c2ccccc2)=C1Nc1cccc(O)c1

>  <%Inh>
20%

$$$$
>  <compound>
Nc1nccc2scc(-c3ccc4c(c3)CCN4C(=O)Cc3ccccc3)c12

>  <%Inh>
17%

$$$$
>  <compound>
Nc1ncnc2c1ncn2-c1cccc(F)c1

>  <%Inh>
0%

$$$$
>  <compound>
Cc1nnc(-c2ccc3ncn(-c4ccc(S(C)=O)cc4)c3c2)o1 (centres unmarked)

>  <%Inh>
2%

$$$$
>  <compound>
O=C(NCCNc1ccnc(Nc2ccc(F)cc2)n1)Nc1ccc2c(c1)OCO2

>  <%Inh>
6%

$$$$
>  <compound>
Cc1nnc(-c2ccc(C)c(-c3ccc(C(=O)O)cc3)c2)o1

>  <%Inh>
17%

$$$$
>  <compound>
Cl.c1ccc(Cn2cnc3cc(Nc4ncnc5ccccc45)ccc32)cc1

>  <%Inh>
40%

$$$$
>  <compound>
COc1cccc(-n2cnc3c(N)ncnc32)c1

>  <%Inh>
5%

$$$$
>  <compound>
FC(F)(F)c1ccc(-c2ncn(CCCN3CCOCC3)c2-c2ccncc2)cc1

>  <%Inh>
28%

$$$$
>  <compound>
CCn1c(-c2nonc2N)nc2ccccc21

>  <%Inh>
0%

$$$$
